protocol details: chemical genetic growth profiling, strain panel (AID 1159580);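 further: tested at 20 µM; growth read once vehicle control cultures reached saturation at 30 °C; lower values mean less growth of the strain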
condition summary: S. cerevisiae deletion strains, growth OD, locus YKL068W
About 2,000 (36%) of roughly 5,500 compounds were called active. Roughly 18% stayed inconclusive and do not appear here. No stated cut-off is given here; in the data, active means normalized growth mostly below about 0.91 (no sharp cut-off); inconclusive means no clear call, values can overlap the other calls; inactive means mostly above about 0.92. The list shows a part of the results.
Result category, one only: active, inactive

Solved entries (count: 3):
molecule: CC(=O)/C=C\[C@@H]1[C@@]2(C)CCCC(C)(C)C2CC[C@@]1(C)O (stereo partly specified)
classification: inactive

molecule: N[C@H](C(=O)O)[C@@H]1CC(Cl)=NO1
classification: active

molecule: NCCC(=O)N[C@@H](Cc1cnc[nH]1)C(=O)O
classification: inactive

Please indicate how the test categorized NNC(=O)c1ccncc1 .
inactive

Please indicate how the test categorized C=C/C(C)=C\CC1C(C)(O)CCC2C(C)(C)CCCC21C (stereo unspecified) .
inactive

Please indicate how the test categorized Nc1ccc(S(=O)(=O)Nc2ccnn2-c2ccccc2)cc1 .
inactive
